study-system: MMP2 (Homo sapiens, UniProt P08253)
Sequence (P08253 110-660): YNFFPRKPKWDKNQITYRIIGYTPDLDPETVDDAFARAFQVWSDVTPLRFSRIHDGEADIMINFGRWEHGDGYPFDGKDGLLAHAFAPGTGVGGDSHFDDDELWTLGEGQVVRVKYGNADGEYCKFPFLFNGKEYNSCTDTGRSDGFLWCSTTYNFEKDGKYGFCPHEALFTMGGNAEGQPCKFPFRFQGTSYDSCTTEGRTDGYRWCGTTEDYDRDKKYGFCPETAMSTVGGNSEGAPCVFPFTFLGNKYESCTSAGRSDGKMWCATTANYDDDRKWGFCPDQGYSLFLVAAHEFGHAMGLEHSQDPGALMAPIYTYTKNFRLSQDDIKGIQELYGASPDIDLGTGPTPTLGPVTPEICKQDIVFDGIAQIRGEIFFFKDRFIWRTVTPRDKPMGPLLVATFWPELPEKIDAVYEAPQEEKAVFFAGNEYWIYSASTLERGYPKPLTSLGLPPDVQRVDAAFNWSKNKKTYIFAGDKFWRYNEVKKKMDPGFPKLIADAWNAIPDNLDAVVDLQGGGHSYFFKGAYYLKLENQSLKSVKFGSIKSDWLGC
test: Inhibitory effects on human MMP2 (Method 1), enzyme assay with MOCAc-Pro-Leu-Gly-Leu-A2pr(Dnp)-Ala-Arg-NH2 substrate, 96-well
Type: biochemical
condition-notes: Test Example No. 1-1 (Method 1, 96-well microplate); read-out: Human MMP2, IC50
*1 amine or outer side, *2 acyl side, *3 side chain or, on linkers, in order; H or OH if unused. Where a SMILES comes first, the peptide text is derived from it. [ ]: non-standard residue; d: D form. The star is where a group is joined. Phenylsulfonyl(4-anisamido) = COc1ccc(C(=O)Nc2ccc(S(=O)(=O)*)cc2)cc1; Benzoyl(4-(4-EtNHCO-PhO)) = CCNC(=O)c1ccc(Oc2ccc(C(=O)*)cc2)cc1; X6 = NCCCCNC(=O)c1ccc(Oc2ccc(C(=O)*)cc2)cc1; Benzoyl(4-OPh) = O=C(c1ccc(Oc2ccccc2)cc1)*; d(γGlu) = O=C(O)[C@@H](CCC(=O)[*:2])N[*:1]; NMeI = CC[C@H](C)[C@H](NC)C(=O)O; NMeE = CN[C@@H](CCC(=O)O)C(=O)O; β3hP = O=C(O)C[C@@H]1CCCN1; NMeA = CN[C@@H](C)C(=O)O; Dab = NCC[C@H](N)C(=O)O; Aib = CC(C)(N)C(=O)O; Ahx = NCCCCCC(=O)O; Ava = NCCCCC(=O)O; GABA = NCCCC(=O)O
# key: entry, value: IC50
State just the number; it will be interpreted in nM.

| compound | study-system | IC50 (nM) |
| --- | --- | --- |
| CC(C)C[C@H](NC(=O)[C@H](CCN)NC(=O)[C@H](CC(=O)O)NC(=O)[C@H](CC(N)=O)NC(=O)CCCCNC(=O)c1ccc(Oc2ccc(C(=O)NCCCCN)cc2)cc1)C(=O)N(C)[C@@H](CCC(=O)O)C(=O)N1CCC[C@H]1CC(N)=O [Compound 181] ({X6-Ava}-ND[Dab]L[NMeE][β3hP]-NH2; N-terminus assumed) | MMP2 (Homo sapiens, UniProt P08253) | 3.1 |

Request: Any idea what IC50 was measured for CC[C@H](C)[C@@H](C(=O)NC(C)(C)C(N)=O)N(C)C(=O)[C@H](CC(C)C)NC(=O)[C@H](C)NC(=O)[C@H](CC(=O)O)NC(=O)[C@H](C)N(C)C(=O)CCCNC(=O)c1ccc(Oc2ccccc2)cc1 [Compound 96] ({Benzoyl(4-OPh)-GABA}-[NMeA]DAL[NMeI][Aib]-NH2) ?
Response: 0.74

Request: Tell me the measured IC50 of CCNC(=O)c1ccc(Oc2ccc(C(=O)NCCCCCC(=O)N[C@@H](CCCNC(=N)N)C(=O)N[C@@H](CC(=O)O)C(=O)N[C@@H](CCN)C(=O)N[C@@H](CC(C)C)C(=O)N(C)[C@H](C(=O)N3CCC[C@H]3CC(N)=O)[C@@H](C)CC)cc2)cc1 [Compound 198] ({Benzoyl(4-(4-EtNHCO-PhO))-Ahx}-RD[Dab]L[NMeI][β3hP]-NH2; N-terminus assumed) , please.
Response: 5.1

Request: Field request: IC50 | item: CCNC(=O)c1ccc(Oc2ccc(C(=O)NCCCCC(=O)N[C@@H](CCCCN)C(=O)N[C@@H](CC(=O)O)C(=O)N[C@@H](CCN)C(=O)N[C@@H](CC(C)C)C(=O)N(C)[C@@H](CCC(=O)O)C(=O)N3CCC[C@H]3CC(N)=O)cc2)cc1 [Compound 192] ({Benzoyl(4-(4-EtNHCO-PhO))-Ava}-KD[Dab]L[NMeE][β3hP]-NH2; N-terminus assumed)
Response: 1.9

Request: What measured IC50 goes with COc1ccc(C(=O)Nc2ccc(S(=O)(=O)N[C@H](CCC(=O)N[C@@H](CCN)C(=O)N[C@@H](CC(C)C)C(=O)N(C)[C@@H](CCC(=O)O)C(=O)N3CCC[C@H]3CC(N)=O)C(=O)O)cc2)cc1 [Compound 697] ({Phenylsulfonyl(4-anisamido)-d(γGlu)}-[Dab]L[NMeE][β3hP]-NH2; N-terminus assumed) ?
Response: 0.28

Request: Tell me the measured IC50 of CC(C)C[C@H](NC(=O)[C@H](CCN)NC(=O)[C@H](CC(=O)O)NC(=O)[C@H](CC(N)=O)NC(=O)CCCNC(=O)c1ccc(Oc2ccccc2)cc1)C(=O)N(C)[C@@H](CCC(=O)O)C(=O)N1CCC[C@H]1CC(N)=O [Compound 108] ({Benzoyl(4-OPh)-GABA}-ND[Dab]L[NMeE][β3hP]-NH2) , please.
Response: 0.19

These data points were gathered from patent US20240199692A1.
